B1: HDV Ribozyme (parent)
chain: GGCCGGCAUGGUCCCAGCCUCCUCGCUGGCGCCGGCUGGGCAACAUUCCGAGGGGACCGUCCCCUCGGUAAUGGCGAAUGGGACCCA

Variants of: B1
Experiment: self-cleavage, relative activity (ratio to wild type); higher = more cleavage; co-transcriptional
Threshold check on self-cleavage: at or above 0.7 gives condition met, strictly below gives condition not met.

// known answers, use as guide
MUTANT_CODE | CAT
G10C U65A | condition not met
G10A U47A | condition not met

Ask: Textbook exercise: given the entry G31U A56C , state whether its self-cleavage is greater than or equal to 0.7.
Result: condition not met

Ask: Decide: is the reported value of self-cleavage for G54A G80U equal to or greater than 0.7?
Result: condition not met

Ask: // inclusive: self-cleavage at least 0.7? input: G67A U69A
Result: condition met

Ask: Item U60A C61U with self-cleavage of 0.7 or above?
Result: condition met

From: the RNAGym collection of RNA variant scans (doi:10.7554/elife.80360)
